Target: human ether-à-go-go-related gene (hERG) potassium channel (human);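 note: peak tail current of the secondary pulse compared with the same well before compound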
Assay: primary screen, population patch clamp on CHO cells stably expressing hERG; higher = less effect of the substance
Protocol: Briefly, Chinese hamster ovary (CHO) cells stably expressing the hERG channel were dislodged from tissue culture flasks and dispensed into PPC plates. […] During the recording, background leak currents were estimated by a 100 ms step to -80 mV from an initial holding potential of -70 mV and subtracted from the subsequent current measurement. The campaign was conducted in two phases using slight differences in recording protocol. […]
In all, about 310,000 compounds went through this assay and about 14,000 (4.5%) showed an effect of 50% or more. Effects have a minus sign here. This excerpt belongs to a sample that is enriched for strong results.
hERG current change (%, negative = inhibition) at 10uM reference
Record the value in %, omitting the unit from your answer.

Examples from the recorded data:
In: Return reported hERG current change (%, negative = inhibition) at 10uM; argument: COc1ccc(CCNC(=O)[C@@H](NC(=O)c2ccccc2F)C(C)C)cc1OC
Out: -9.87

In: Input CC(=O)N1CCc2c(sc(NC(=O)C3CCN(S(=O)(=O)c4cccs4)CC3)c2C(N)=O)C1
Out: -29.4

In: Input O=C(Nc1ccc(Cc2ccncc2)cc1)c1cccc([N+](=O)[O-])c1
Out: 13.6

In: Input O=c1c2c3c(sc2n2cnnc2n1CCc1ccccc1)CCCC3
Out: -20.5

***
In: Return reported hERG current change (%, negative = inhibition) at 10uM; argument: Cc1csc(CN(C)C(=O)C2CCC(=O)N(CCCc3ccccc3)C2)n1 (stereo not drawn)
Out: -5.37

In: Input COc1ccc(C(=O)NCc2nnc(SCC(=O)Nc3cccc(OC)c3)o2)cc1
Out: -1.25

In: Input Cc1csc(NC(=O)C2CCN(S(=O)(=O)c3cccs3)CC2)n1
Out: -27.3

In: Input CC(=O)Nc1ccc(C(=O)CSc2ncn(-c3ccccc3)n2)cc1
Out: 5.72

In: Input CCCn1c(NC(=O)C2CCN(S(=O)(=O)c3cccs3)CC2)nc2ccccc21
Out: -68.8

###

Target: human ether-à-go-go-related gene (hERG) potassium channel (human, UniProt Q12809);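 note: peak tail current of the secondary pulse compared with the same well before compound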
Sequence (Q12809 whole entry, looked up): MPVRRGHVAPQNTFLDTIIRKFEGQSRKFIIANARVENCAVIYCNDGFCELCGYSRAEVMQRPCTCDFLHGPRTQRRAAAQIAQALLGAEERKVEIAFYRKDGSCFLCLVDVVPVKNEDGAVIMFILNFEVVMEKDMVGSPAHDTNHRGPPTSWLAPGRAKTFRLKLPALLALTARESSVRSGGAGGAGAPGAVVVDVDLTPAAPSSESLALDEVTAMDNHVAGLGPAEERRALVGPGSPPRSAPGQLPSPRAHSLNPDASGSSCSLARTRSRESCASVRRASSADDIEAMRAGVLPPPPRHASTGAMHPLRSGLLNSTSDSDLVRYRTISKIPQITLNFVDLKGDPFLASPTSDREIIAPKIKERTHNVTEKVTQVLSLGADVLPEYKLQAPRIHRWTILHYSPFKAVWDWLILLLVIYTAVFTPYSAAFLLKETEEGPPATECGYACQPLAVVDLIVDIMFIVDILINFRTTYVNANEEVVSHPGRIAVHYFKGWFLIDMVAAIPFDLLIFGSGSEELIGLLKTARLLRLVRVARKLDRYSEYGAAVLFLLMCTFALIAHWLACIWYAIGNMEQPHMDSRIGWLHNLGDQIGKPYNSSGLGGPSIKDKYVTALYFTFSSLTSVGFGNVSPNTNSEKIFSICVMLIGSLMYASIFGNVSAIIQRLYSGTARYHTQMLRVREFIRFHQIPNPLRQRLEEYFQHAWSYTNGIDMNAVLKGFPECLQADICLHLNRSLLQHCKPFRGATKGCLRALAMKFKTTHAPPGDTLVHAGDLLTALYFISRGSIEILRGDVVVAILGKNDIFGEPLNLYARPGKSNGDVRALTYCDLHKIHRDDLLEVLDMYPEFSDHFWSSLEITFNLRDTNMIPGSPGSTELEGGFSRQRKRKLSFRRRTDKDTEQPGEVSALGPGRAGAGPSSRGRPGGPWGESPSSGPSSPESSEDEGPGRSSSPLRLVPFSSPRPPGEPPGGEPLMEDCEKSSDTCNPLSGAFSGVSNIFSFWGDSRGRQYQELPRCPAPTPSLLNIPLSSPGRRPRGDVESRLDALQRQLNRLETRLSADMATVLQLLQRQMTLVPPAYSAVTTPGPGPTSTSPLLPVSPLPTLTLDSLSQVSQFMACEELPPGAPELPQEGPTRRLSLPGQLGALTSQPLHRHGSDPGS
Test: primary screen, population patch clamp on CHO cells stably expressing hERG; higher = less effect of the substance
Procedure: Briefly, Chinese hamster ovary (CHO) cells stably expressing the hERG channel were dislodged from tissue culture flasks and dispensed into PPC plates. […] During the recording, background leak currents were estimated by a 100 ms step to -80 mV from an initial holding potential of -70 mV and subtracted from the subsequent current measurement. The campaign was conducted in two phases using slight differences in recording protocol. […]
The campaign covered roughly 310,000 compounds. About 14,000 (4.5%) showed an effect of 50% or more. Effects have a minus sign here. The sample as a whole holds a higher share of strong results than the screen did.
Assign yes (1) to entries whose hERG current change (%, negative = inhibition) at 10uM meets or exceeds -30%; assign no (0) to the rest.

Answered examples (6):
In: # bool: hERG current change (%, negative = inhibition) at 10uM of Cc1nn(-c2ccccc2)c(N)c1Sc1ccccc1[N+](=O)[O-] >= -30%
Out: yes (1)

In: Input Nc1c(-c2ccccc2Cl)cnn1-c1cccc([N+](=O)[O-])c1
Out: no (0)

In: Input Cn1c(=O)c2c(nc(CN3CCN(C(=O)c4ccco4)CC3)n2CCCO)n(C)c1=O
Out: yes (1)

In: Input Cc1nn(-c2cccc([N+](=O)[O-])c2)c(N)c1-c1ccccc1
Out: no (0)

In: Input Cc1nn(-c2ccc([N+](=O)[O-])cc2)c(N)c1-c1ccccc1
Out: yes (1)

In: Input Nc1ccc(C2(c3ccc(N)cc3)OC(=O)c3ccccc32)cc1
Out: yes (1)

***
In: # bool: hERG current change (%, negative = inhibition) at 10uM of Cc1ccccc1-c1cnn(-c2cccc([N+](=O)[O-])c2)c1N >= -30%
Out: no (0)

In: Input N/C(=N\OC(=O)c1ccc(=O)n(Cc2ccc(Cl)cc2)c1)c1ccccn1
Out: no (0)

In: Input Cc1ccc(-c2cnn(-c3cccc([N+](=O)[O-])c3)c2N)cc1
Out: yes (1)
